Attribution: patent US9464082B2

# Test system: IFNγ-Induced NO Production
# Assay Overview: Nitric Oxide Suppression Assay (Suppression of IFNγ-Induced NO Production)
# Format: cell-based
# Setup Conditions: RAW264.7; RAW 264.7 mouse macrophage cells; 2 hour pre-treatment with compound (3 μM to 0.3 nM, 10 point curve); 20 ng/mL interferon gamma, ~18 hour; Griess detection; n=2-3 in duplicates
Classification field. Basis: IC50. Definitions: low = under 9 nM, middle = from 9 nM up to 40 nM, high = 40 nM and over

Here's what some known entries look like.
Molecule: C[C@@H]1C(=O)C(C#N)=C[C@]2(Cc3ccccc3)c3nn(C)c(-c4ccccc4)c3CC[C@@H]12 (racemic)
Class Name: high
--
Molecule: CCN(CC)c1ncc2c(n1)[C@@]1(c3ccccc3)C=C(C#N)C(=O)[C@@H](C)[C@@H]1CC2
Class Name: high
--
Molecule: C[C@@H]1C(=O)C(C#N)=C[C@]2(c3ccccc3)c3nn(C)c(-c4cccc(-c5ccc(N)cc5)c4)c3CC[C@@H]12
Class Name: low
--
Molecule: C[C@@H]1C(=O)C(C#N)=C[C@]2(c3ccccc3)c3nn(C)c(-c4ccc(-c5ccncc5)cc4)c3CC[C@@H]12
Class Name: high
--
Molecule: COC(=O)c1ccc(-c2cccc(-c3nc(C)nc4c3CC[C@H]3[C@H](C)C(=O)C(C#N)=C[C@]43c3ccccc3)c2)cc1
Class Name: low
--
Molecule: C[C@@H]1C(=O)C(C#N)=C[C@]2(c3cccc(OCc4ccccc4)c3)c3ncncc3CC[C@@H]12
Class Name: low
--
Molecule: C[C@@H]1C(=O)C(C#N)=C[C@]2(c3ccccc3)c3nn(C(=O)c4cscn4)cc3CC[C@@H]12
Class Name: high
--
Molecule: C[C@@H]1C(=O)C(C#N)=C[C@]2(c3ccccc3)c3c(cnn3Cc3ccc(Br)cc3)CC[C@@H]12
Class Name: high

### Prompt Pick a category. Item: C[C@@H]1C(=O)C(C#N)=C[C@]2(c3ccccc3)c3nc(-c4cnccn4)ncc3CC[C@@H]12
### Response low

### Prompt Pick a category. Item: C[C@@H]1C(=O)C(C#N)=C[C@]2(c3ccccc3)c3nn(C)c(-c4cccc(-c5ccc(O)cc5)c4)c3CC[C@@H]12
### Response low

### Prompt Pick a category. Item: Cc1nc(-c2ccc(-c3cncn3C)cc2)c2c(n1)[C@@]1(c3ccccc3)C=C(C#N)C(=O)[C@@H](C)[C@@H]1CC2
### Response middle

### Prompt Pick a category. Item: Cc1nc(-c2cccc(-c3ccc(C(N)=O)cc3)c2)c2c(n1)[C@@]1(c3ccccc3)C=C(C#N)C(=O)[C@@H](C)[C@@H]1CC2
### Response low

### Prompt Pick a category. Item: Cc1ncc2c(n1)[C@@]1(c3ccccc3)C=C(C#N)C(=O)[C@@H](C)[C@@H]1CC2 (racemic)
### Response middle

### Prompt Pick a category. Item: COc1cccc(-c2nc(C)nc3c2CC[C@H]2[C@H](C)C(=O)C(C#N)=C[C@]32c2ccccc2)c1
### Response middle

### Prompt Pick a category. Item: COC(=O)c1ccc([C@]23C=C(C#N)C(=O)[C@@H](C)[C@@H]2CCc2c[nH]nc23)cc1
### Response middle

### Prompt Pick a category. Item: C[C@@H]1C(=O)C(C#N)=C[C@]2(c3ccccc3)c3nc(-c4ccc(C(=O)O)cc4)ncc3CC[C@@H]12
### Response middle

### Prompt Pick a category. Item: C[C@@H]1C(=O)C(C#N)=C[C@]2(c3ccccc3)c3nc(Nc4ccccc4)ncc3CC[C@@H]12 (racemic)
### Response low

### Prompt Pick a category. Item: C[C@@H]1C(=O)C(C#N)=C[C@]2(c3ccccc3)c3n[nH]c(-c4cccnc4)c3CC[C@@H]12
### Response low

### Prompt Pick a category. Item: C[C@@H]1C(=O)C(C#N)=C[C@]2(c3cccc(C(=O)Nc4ccccc4)c3)c3ncncc3CC[C@@H]12
### Response middle

### Prompt Pick a category. Item: C[C@@H]1C(=O)C(C#N)=C[C@]2(c3ccc(O)cc3)c3n[nH]cc3CCC12 (some centres unmarked)
### Response middle

### Prompt Pick a category. Item: Cc1nc(-c2ccc(-c3[nH]ncc3Br)cc2)c2c(n1)[C@@]1(c3ccc(F)cc3)C=C(C#N)C(=O)[C@@H](C)[C@@H]1CC2
### Response middle

### Prompt Pick a category. Item: Cc1nc(-c2c[nH]c(=O)[nH]c2=O)c2c(n1)[C@@]1(c3ccc(F)cc3)C=C(C#N)C(=O)[C@@H](C)[C@@H]1CC2
### Response high

====

# Test system: IFNγ-Induced NO Production
# Assay Overview: Nitric Oxide Suppression Assay (Suppression of IFNγ-Induced NO Production)
# Type: cell-based
# Setup Conditions: RAW264.7; RAW 264.7 mouse macrophage cells; 2 hour pre-treatment with compound (3 μM to 0.3 nM, 10 point curve); 20 ng/mL interferon gamma, ~18 hour; Griess detection; n=2-3 in duplicates
# Experimental: RAW 264.7, a mouse macrophage cell line, was obtained from American Type Culture Collection (Manassas Va.) and maintained in the log phase of growth in Dulbecco's Modified Eagle's Medium (DMEM), 10% heat inactivated fetal calf serum and 100 units/mL antibiotic-antimycotic (AA). Cells were cultured and maintained in a humidified incubator at 37° C. under 5% CO2 and 95% air. Cells were sub-cultured every 3 days by scraping and were not used beyond passage 20. […]
For each of the compounds below, state its IC50.
Numbers only, in nM.

Compound: COC(=O)c1ccc([C@]23C=C(C#N)C(=O)[C@@H](C)[C@@H]2CCc2c(-c4c(Br)ncn4C)nc(C)nc23)cc1 [Example 176]
IC50 [nM]: 12.8

Dear reader, for each entry below, please note its IC50.
1. C[C@@H]1C(=O)C(C#N)=C[C@]2(c3ccccc3)c3n[nH]c(-c4cnn(CC(=O)O)c4)c3CC[C@@H]12 [Example 141]
2. C[C@@H]1C(=O)C(C#N)=C[C@]2(c3cccc(F)c3)c3n[nH]cc3CC[C@@H]12 [Example 53]
3. C[C@@H]1C(=O)C(C#N)=C[C@]2(c3ccccc3)c3nn(C)cc3CC[C@@H]12 [Example 52]
4. C[C@@H]1C(=O)C(C#N)=C[C@]2(c3ccc(OCc4ccccc4)cc3)c3ncncc3CC[C@@H]12 [Example 120]

### Response
1: 4; 2: 31.7; 3: 53.2; 4: 5.44

====

# Test system: IFNγ-Induced NO Production
# Assay Overview: Nitric Oxide Suppression Assay (Suppression of IFNγ-Induced NO Production)
# Assay type: cell-based
# Setup Conditions: RAW264.7; RAW 264.7 mouse macrophage cells; 2 hour pre-treatment with compound (3 μM to 0.3 nM, 10 point curve); 20 ng/mL interferon gamma, ~18 hour; Griess detection; n=2-3 in duplicates
Experimental Endpoint: IC50 (nM)
Answers are plain numbers, in nM.

Compound: COc1ccc([C@]23C=C(C#N)C(=O)[C@@H](C)[C@@H]2CCc2c(-c4ccc(-c5ccn[nH]5)cc4)nc(C)nc23)cc1
IC50, nM: 7.43
--
Compound: C[C@@H]1C(=O)C(C#N)=C[C@]2(c3ccccc3)c3nn(C(=O)Oc4ccccc4)cc3CC[C@@H]12
IC50, nM: 60.5
--
Compound: Cc1nc(-c2ccc(N3CCOCC3)c(Br)c2)c2c(n1)[C@@]1(c3ccccc3)C=C(C#N)C(=O)[C@@H](C)[C@@H]1CC2
IC50, nM: 52.2
--
Compound: C[C@@H]1C(=O)C(C#N)=C[C@]2(c3ccccc3)c3n[nH]cc3CC[C@@H]12
IC50, nM: 67.7
--
Compound: Cc1nc(-c2cn[nH]c2)c2c(n1)[C@@]1(c3ccccc3)C=C(C#N)C(=O)[C@@H](C)[C@@H]1CC2
IC50, nM: 2.86
--
Compound: COc1nc(C)nc2c1CC[C@H]1[C@H](C)C(=O)C(C#N)=C[C@]21c1ccccc1
IC50, nM: 4.8
--
Compound: C[C@@H]1C(=O)C(C#N)=C[C@]2(c3cccc(C(=O)O)c3)c3nc(-c4ccccc4)ncc3CC[C@@H]12
IC50, nM: 426
--
Compound: COC(=O)c1cccc([C@]23C=C(C#N)C(=O)[C@@H](C)[C@@H]2CCc2cncnc23)c1
IC50, nM: 6.53

Dear reader, for each entry below, please note its IC50.
1. Cc1nc(-c2ccc(-c3ccncc3)cc2)c2c(n1)[C@@]1(c3ccccc3)C=C(C#N)C(=O)[C@@H](C)[C@@H]1CC2
2. Cc1nc(-c2ccc3[nH]cnc3c2)c2c(n1)[C@@]1(c3ccc(F)cc3)C=C(C#N)C(=O)[C@@H](C)[C@@H]1CC2
3. C[C@@H]1C(=O)C(C#N)=C[C@]2(c3ccccc3)c3nn(S(=O)(=O)c4ccccc4)cc3CC[C@@H]12

### Response
1: 12.7; 2: 13.6; 3: 1180

// IC50 value for C[C@@H]1C(=O)C(C(N)=O)=C[C@]2(Cc3ccccc3)c3nn(C)c(-c4ccccc4)c3CC[C@@H]12 (racemic) : 706
